Data provenance is paper PMC9910433.

Assay Overview: Pharmacokinetic studies in Sprague Dawley rats
Format: in vivo
Reported Conditions: male, Sprague-Dawley, rat, plasma, po, 50 mg/kg, AUC0-last, 50 mg/kg p.o.
Attribute Measured: AUC(0-t) (ng·h/mL)
Express your answer in ng·h/mL, writing the number without its unit.

The molecule listed as `CCc1cc(C(=O)NC)c2nccc(N3CCc4c(cc(Cn5ccnc5)cc4-c4cn(C)nc4C(F)(F)F)C3=O)c2c1` shows AUC(0-t) equal to 55700

###

Assay Overview: PK and elimination routes in bile duct cannulated SD rats
Assay type: in vivo, Sprague Dawley rats
Reported Conditions: male, Sprague-Dawley, rat, plasma, po, 50 mg/kg
Attribute Measured: AUC(0-t) (ng·h/mL)
The reply should contain only the number, in ng·h/mL.

Lab note: `CCc1cc(C(=O)NC)c2nccc(N3CCc4c(cc(Cn5ccnc5)cc4-c4cn(C)nc4C(F)(F)F)C3=O)c2c1` gave AUC(0-t) of 94800

###

# Ki per entry
Assay System: UniProt:P61964
Quick note: give the figure in nM, leave out the unit.

- CNC(=O)c1cc(OC)cc2c(N3CCc4c(cc(Cn5ccnc5)cc4-c4cn(C)nc4C(F)(F)F)C3=O)ccnc12: 0.021

Ki for UniProt:P61964 with input `COc1cc(C(=O)N(C)C)c2nccc(N3CCc4c(cc(Cn5ccnc5)cc4-c4cn(C)nc4C(F)(F)F)C3=O)c2c1` equals 0.043

###

Assay Overview: Plasma and tumor concentrations in MV4:11 xenografted mice
Type: in vivo
Reported Conditions: female, BALB/c nude, mouse, tumor, oral, 150 mg/kg
Attribute Measured: concentration at 1 h (ng/g)
Reply numerically in ng/g, unit not repeated.

The recorded concentration at 1 h for CCc1cc(C(=O)NC)c2nccc(N3CCc4c(cc(Cn5ccnc5)cc4-c4cn(C)nc4C(F)(F)F)C3=O)c2c1 [Compound 10] is 9760
